These measurements were taken from paper PMC8815882.

Test system: ten different M. mycetomatis isolates
Test Name: MIC / MIC50 determination (XTT) in ten M. mycetomatis isolates
Format: cell-based, Madurella mycetomatis
Reported Conditions: Madurella mycetomatis; isolate i1; read-out: MIC i1
Quantity Measured: log10(MIC) (log10 of the value in µM)
Note the log scale: values are log10 of MIC expressed in µM.

Dear colleague, I am looking for the recorded log10(MIC) of the following compound: Oc1c(C(Nc2nc3ccccc3s2)c2ccc(OC(F)F)cc2)ccc2cccnc12 (centres unmarked) 0.30

How about COC(=O)Nc1nc2c(C)cccc2[nH]1 ? 0.60

For CCCCC(CC)CNC(=N)NC(=N)NCCCCCCNC(=N)NC(=N)NCC(CC)CCCC (centres unmarked) [MMV396785, Alexidine, reference compound] then? 0.30

And then O=C(/C(=C/c1ccc(Cl)cc1Cl)n1ccnc1)c1ccc(Cl)cc1 , what is it? 0.00

Then COC(=O)Nc1nc2ccc(Sc3ccccc3)cc2[nH]1 ? -0.60

Same for O=S(=O)(Nc1ccc(-n2cccc2)cc1)c1ccc(Cl)c(Cl)c1 1.20

Now the compound O[C@@](Cn1cnnn1)(c1ccc(F)cc1F)C(F)(F)c1ccc(-c2ccc(OCC(F)(F)F)cc2)cn1 [MMV1634386, Oteseconazole, reference compound] -0.60

CCN(CC)CCn1c(=N)n(CC(O)COc2ccc(Cl)cc2Cl)c2ccccc21 (centres unmarked) ? 1.20

Repeat with Clc1cc(Cl)c2c(c1)CCc1ccccc1C2n1ccnc1 (centres unmarked) [MMV1634492, Eberconazole, reference compound] -1.20

Please answer likewise for CCC(C)(C)c1ccc(CC(C)CN2C[C@@H](C)O[C@@H](C)C2)cc1 (some centres unmarked) [MMV1634358, Amorolfine, reference compound] 0.30

Moving on to COc1cc(C)c2c(Oc3cccc(C(F)(F)F)c3)c(OC)cc(NC(C)CCCN)c2n1 (centres unmarked) [MMV000043, Tafenoquine, reference compound] 0.60

Query COC(=O)Nc1nc2ccccc2[nH]1 next -0.30

----------
Tested on: M. mycetomatis genome strain MM55
Test Name: CLSI M38-A2 based in vitro susceptibility screening (XTT or resazurin), growth at fixed concentration
Assay type: cell-based, Madurella mycetomatis
Reported Conditions: Madurella mycetomatis, 100 uM, mean of three, M. mycetomatis MM55; read-out: Percentage survival at 100um, 100 uM mean
Quantity Measured: activity at 100 µM (%)
Express it in %; write the number only.

Could you tell me which activity at 100 µM is on file for COc1ccc2cc3[n+](cc2c1OCCN(CCn1cncn1)Cc1ccc(F)cc1F)CCc1cc2c(cc1-3)OCO2 ? 84.2

Same for C=C(C)n1c(=O)n(Cc2ccccc2C)c2ccccc21 9.54

Proceed to CC(C)(C)OC(=O)NCc1ccc(C(=O)N[C@H]2CCOC2=O)cc1 113

// query: O=c1cc(OCc2ccccc2)ccn1Cc1ccccc1 63.4

Would you kindly repeat that for CCc1nc(N)nc(N)c1C#CC(C)c1cc(OC)cc(-c2ccncc2)c1 (centres unmarked) ? -1.56

Next entry: CC[C@H]1OC(=O)[C@H](C)[C@@H](O[C@H]2C[C@@](C)(OC)[C@@H](O)[C@H](C)O2)[C@H](C)[C@@H](O[C@@H]2O[C@H](C)C[C@H](N(C)C)[C@H]2O)[C@](C)(O)C[C@@H](C)C(=O)[C@H](C)[C@@H](O)[C@]1(C)O 79.9

Also C[C@H](c1cccc2ccccc12)N(C)Cc1ccccc1 , if possible. 78.8

Try O=C(Nc1ccccc1C(=O)O)c1cccc(Oc2ccccc2)c1 next. 90.8

----------
Tested on: M. mycetomatis genome strain MM55
Test Name: CLSI M38-A2 based in vitro susceptibility screening (XTT or resazurin), growth at fixed concentration
Type: cell-based, Madurella mycetomatis
Reported Conditions: Madurella mycetomatis, 100 uM, replicate 2; read-out: Percentage survival at 100um, 100 uM A
Lab note - cut at 80% for activity at 100 µM: YES if strictly below, NO if not.

Record COc1cc(Cc2cc(N)nc(N)n2)cc(OC)c1OC [MMV1579846] : is its activity at 100 µM strictly below 80%? NO

Okay, and O=C(O)CCNC(=O)c1ccccc1 [MMV002224] ? NO

Now the same for Oc1ccc2[nH]c(-c3ccccc3)nc2c1 [MMV292173] NO

Check CCCCOC(=O)Nc1cc2nc(C3CCCCC3)[nH]c2cc1N(CC)CC [MMV1578842] too. NO

Continue with O=C(Nc1ccc(F)cc1)c1nn(-c2ccccc2)c(=O)cc1Cl [MMV1578555] YES

Try O=C(Cc1ccccc1F)Nc1nc2ccccc2[nH]1 [MMV1578576] next. YES

Would you mind doing CC(=N)N1CC[C@H](SC2=C(C(=O)O)N3C(=O)[C@@H]([C@@H](C)O)[C@H]3C2)C1 [MMV1582382] as well? NO

Entry COc1c(F)c(F)cc2c(=O)c(C(=O)O)cn(C3CC3)c12 [MMV1480967] please YES

Another molecule to look at: O=C1NC(=O)C(Br)=C1Br [MMV1578554] YES

What about this molecule? C=CCc1cc(Cc2cnc(N)nc2N)cc(OC)c1O [MMV1580849] NO

Query CN(C)[C@@H]1C(=O)C(C(N)=O)=C(O)[C@@]2(O)C(=O)C3=C(O)c4c(O)c(NC(=O)CN5CCCC5)cc(F)c4C[C@H]3C[C@@H]12 [MMV1578574] next NO

Also CO/N=C(\C(=O)N[C@@H]1C(=O)N2C(C(=O)OCOC(=O)C(C)(C)C)=C(/C=C\c3scnc3C)CS[C@H]12)c1csc(N)n1 [MMV002560] , if possible. NO

Same read-out for C[C@@H]1O[C@@H]1P(=O)(O)O [MMV002354] ? NO

And then CC(=O)Nc1cc(NS(=O)(=O)c2ccc(Cl)cc2)cc2c(Cl)n[nH]c12 [MMV1579779] , what is it? YES

Repeat for the following molecule: Cc1c(CN(C)C(=O)/C=C/c2cnc3c(c2)C(C)(C)C(=O)N3)oc2ccccc12 [MMV1579788] YES

Field entry: CCN(CC)CCn1c(=N)n(CC(O)COc2ccc(Cl)cc2Cl)c2ccccc21 (centres unmarked) [MMV000725] YES

Then this molecule: CN(C)CCNC(=O)c1cccc2cccnc12 [MMV811071] NO

Okay, and COc1ccc(SCC(=O)N2c3ccccc3Sc3ccccc32)cc1 [MMV1578573] ? YES

Continue with Fc1ccc2c(/C=C/c3nnn[nH]3)c[nH]c2c1 [MMV1578563] NO

Another molecule to look at: O=[N+]([O-])c1cn2c(n1)OC[C@@H](OCc1ccc(OC(F)(F)F)cc1)C2 [MMV688755] NO

Then what about the molecule Nc1nnc(-c2ccc(Cl)cc2)s1 [MMV046261] ? YES

Ok, now NC1(C(=O)O)CCP(=O)(O)CC1 (centres unmarked) [MMV1593538] YES

Try Cc1cccc(CC(=O)N[C@H]2CCOC2=O)c1 [MMV1579782] next. NO

Next molecule: CCc1oc2ccccc2c1C(=O)c1ccc(O)cc1 [MMV1578558] YES

Same thing, different molecule: CC(C)(C)c1cc(C(=O)/C(C#N)=N/Nc2cccc(Cl)c2)no1 [MMV1578571] YES

Also O=C(c1ccccc1)N1CCN(c2ccccc2NC(=O)C(Cl)(Cl)Cl)CC1 [MMV001014] , if possible. YES

Next up: O=C(Nc1ncc(Cc2cccc3ccccc23)s1)C1CCCCC1 [MMV1593532] NO

Now this one: CCCCCCCCC(CP(=O)(O)C(C)N)C(=O)O (centres unmarked) [MMV1582487] NO

What about this molecule? Nc1nc(N)c2c(Sc3ccccc3)cccc2n1 [MMV021759] YES

Request: O=C(NC12CC3CC(CC(C3)C1)C2)c1cc2ccccc2[nH]1 [MMV1578577] YES

Try the molecule CC(C)n1cnc2c(NCc3ccccc3)nc(NCc3ccccc3)nc21 [MMV1579780] YES

And what about the molecule Cc1ccc(S(=O)(=O)Nc2cccc3cccnc23)cc1 [MMV233495] ? YES

Please give the result for CCN(CC)S(=O)(=O)c1ccc(Cl)c(C(=O)Nc2sc3c(c2C#N)CCCC3)c1 [MMV1634384] too. NO

Also CCOC(=O)N1CCN(c2ccc(Cl)cc2)CC1 [MMV1578898] ? YES

----------
System: M. mycetomatis genome strain MM55
Test Name: CLSI M38-A2 based in vitro susceptibility screening (XTT or resazurin), growth at fixed concentration
Type: cell-based, Madurella mycetomatis
Reported Conditions: Madurella mycetomatis, 100 uM, replicate 3, MM55; read-out: Percentage survival at 100um, 100 uM A
Friendly reminder: activity at 100 µM below 70% is label 1, at or above is label 0.

I'd appreciate it if you could check whether Cc1c(F)cccc1NC(=O)Nc1ccc(Cl)c(S(=O)(=O)[C@H]2CCCNC2)c1O has activity at 100 µM smaller than 70%. label 0

And what about the molecule Nc1nc(F)nc2c1ncn2[C@@H]1O[C@H](CO)[C@@H](O)[C@@H]1O [MMV637413, Fludarabine, reference compound] ? label 1

And the next one, Cn1cncc1[C@@](N)(c1ccc(Cl)cc1)c1ccc2c(c1)c(-c1cccc(Cl)c1)cc(=O)n2C ? label 1

Would you mind doing Nc1nc(-c2ccccc2)nc2[nH]nc(Nc3ccc(C(F)(F)F)cc3)c12 as well? label 0

Same for c1cc(CN2CCCNCCNCCCNCC2)ccc1CN1CCCNCCNCCCNCC1 label 0

Repeat for the following molecule: O=C(O)COc1cccc2c1CC[C@](O)(COC(=O)N(c1ccccc1)c1ccccc1)C2 label 0

What do you have for C[C@H]1COc2c(N3CCN(C)CC3)c(F)cc3c(=O)c(C(=O)O)cn1c23 ? label 0

Next molecule up: C[Si]1(C)CCN(Cc2cc(-c3ccc(Cl)cc3)n(-c3ccc(Cl)cc3)n2)CC1 label 1

Consider next the molecule CN(C(=O)C1(c2ccc(Cl)cc2)CCC1)c1ccccc1 in the same way. label 1

Can you handle CCn1cc(C(=O)O)c(=O)c2cc(F)c(N3CCNC(C)C3)c(F)c21 (stereo not drawn) next? label 0

Would you mind doing COc1ccc(C[C@@H](C)[C@@H](C)Cc2ccc(OC)c(OC)c2)cc1OC as well? label 1

Also CN(C)CCCNC(=O)c1ccc(-c2cc(O)c3ncccc3c2)cc1 ? label 1

Please answer likewise for CSc1ccc2c(c1)C(N1CCN(C)CC1)Cc1ccccc1S2 (stereo not drawn) label 1

Thanks! And NC(=S)N/N=C/c1ncccc1N ? label 1
